Provide the reported pest or weed control at 250 g/ha of each item.
- System: Lolium perenne (LOLPE)
- protocol: Glasshouse assay for herbicidal activity (pre- and post-emergence), percentage phytotoxicity
- Assay type: in vivo
- condition set: Lolium perenne, pre-emergence, 480 h, 250 g/ha; pre-emergence; 20 DAA; visual assessment (100%=total damage, 0%=no damage); read-out: Pre-emergence herbicidal activity (percentage phytotoxicity) LOLPE PRE
Give the value; after it, write the unit.

Please review the following examples before continuing.
[[record]]
molecule = "Cc1ccnc(CNC(=O)CC2CC(=O)C(c3c(C)cc(C)cc3C)C2=O)c1 (centres unmarked)"
endpoint_value = "90%"

[[record]]
molecule = "Cc1cc(C)c(C2C(=O)CC(CC(=O)NC(C)C(C)(C)C)C2=O)c(C)c1 (centres unmarked)"
endpoint_value = "70%"

[[record]]
molecule = "Cc1cc(-c2ncc(Cl)cc2F)cc(C)c1C1C(=O)CC(CC(=O)NC(C)C)C1=O (centres unmarked)"
endpoint_value = "100%"

[[record]]
molecule = "Cc1cc(-c2ncc(F)cc2F)cc(C)c1C1C(=O)CC(CC(=O)NCc2cccc(Cl)c2)C1=O (centres unmarked)"
endpoint_value = "100%"


Please report pest or weed control at 250 g/ha for every entry that follows.
1. Cc1cc(-c2ncccc2F)cc(C)c1C1C(=O)CC(CC(=O)NC(C)(C)C)C1=O (centres unmarked)
2. Cc1cc(-c2ncc(F)cc2F)cc(C)c1C1C(=O)CC(CC(=O)NCc2cccc(F)c2)C1=O (centres unmarked)
3. Cc1cc(-c2ncc(Cl)cc2F)cc(C)c1C1C(=O)CC(CC(=O)NCC(C)C)C1=O (centres unmarked)
4. Cc1cc(C)c(C2C(=O)CC(CC(=O)NCC=C(Cl)Cl)C2=O)c(C)c1 (centres unmarked)

1. 100%
2. 90%
3. 100%
4. 90%

====

- Tested on: Lolium perenne (LOLPE)
- protocol: Glasshouse assay for herbicidal activity (pre- and post-emergence), percentage phytotoxicity
- Type: in vivo
- condition set: Lolium perenne, post-emergence, 360 h, 250 g/ha; post-emergence; 15 DAA; visual assessment (100%=total damage, 0%=no damage); read-out: Post-emergence herbicidal activity (percentage phytotoxicity) LOLPE POST
For each entry below, report its pest or weed control at 250 g/ha value.
Give your result as the value with the unit written after it.

Below, each entry is followed by its recorded pest or weed control at 250 g/ha result.
[[record]]
compound = "Cc1cc(C)c(C2C(=O)CC(CC(=O)NCC3CC3C(F)F)C2=O)c(C)c1 (centres unmarked)"
subject_of_test = "Lolium perenne (LOLPE)"
endpoint_value = "80%"

[[record]]
compound = "Cc1cc(-c2ncc(F)cn2)cc(C)c1C1C(=O)CC(CC(=O)NC2CCCC2)C1=O (centres unmarked)"
subject_of_test = "Lolium perenne (LOLPE)"
endpoint_value = "90%"

[[record]]
compound = "COCC(C)NC(=O)CC1CC(=O)C(c2c(C)cc(Br)cc2C)C1=O (centres unmarked)"
subject_of_test = "Lolium perenne (LOLPE)"
endpoint_value = "80%"

[[record]]
compound = "Cc1cc(C)c(C2C(=O)CC(CC(=O)NCc3ccc(C#N)cc3)C2=O)c(C)c1 (centres unmarked)"
subject_of_test = "Lolium perenne (LOLPE)"
endpoint_value = "80%"

[[record]]
compound = "C#CC(C)(C)NC(=O)CC1CC(=O)C(c2c(C)cc(Br)cc2C)C1=O (centres unmarked)"
subject_of_test = "Lolium perenne (LOLPE)"
endpoint_value = "90%"

[[record]]
compound = "Cc1cc(C)c(C2CC(=O)C(CC(=O)NC(C)CC(C)C)C2=O)c(C)c1 (centres unmarked)"
subject_of_test = "Lolium perenne (LOLPE)"
endpoint_value = "80%"


# batch size: 2; output pest or weed control at 250 g/ha per entry
1. Cc1cc(C)c(C2C(=O)CC(CC(=O)NCc3cccc(C#N)c3)C2=O)c(C)c1 (centres unmarked)
2. Cc1cc(-c2ncc(F)cn2)cc(C)c1C1C(=O)CC(CC(=O)NCC(C)C)C1=O (centres unmarked)

1: 70%; 2: 100%

Origin of measurements: patent US10206394B2
